meta.source: the kinase profiling compilation of Christmann-Franck et al. (2016)

molecular target: HIPK2 (human) (UniProt Q9H2X6); experiment: radiometric filter-binding kinase assay; conditions: compound 1.0 µM
Sequence (Q9H2X6 whole entry, looked up): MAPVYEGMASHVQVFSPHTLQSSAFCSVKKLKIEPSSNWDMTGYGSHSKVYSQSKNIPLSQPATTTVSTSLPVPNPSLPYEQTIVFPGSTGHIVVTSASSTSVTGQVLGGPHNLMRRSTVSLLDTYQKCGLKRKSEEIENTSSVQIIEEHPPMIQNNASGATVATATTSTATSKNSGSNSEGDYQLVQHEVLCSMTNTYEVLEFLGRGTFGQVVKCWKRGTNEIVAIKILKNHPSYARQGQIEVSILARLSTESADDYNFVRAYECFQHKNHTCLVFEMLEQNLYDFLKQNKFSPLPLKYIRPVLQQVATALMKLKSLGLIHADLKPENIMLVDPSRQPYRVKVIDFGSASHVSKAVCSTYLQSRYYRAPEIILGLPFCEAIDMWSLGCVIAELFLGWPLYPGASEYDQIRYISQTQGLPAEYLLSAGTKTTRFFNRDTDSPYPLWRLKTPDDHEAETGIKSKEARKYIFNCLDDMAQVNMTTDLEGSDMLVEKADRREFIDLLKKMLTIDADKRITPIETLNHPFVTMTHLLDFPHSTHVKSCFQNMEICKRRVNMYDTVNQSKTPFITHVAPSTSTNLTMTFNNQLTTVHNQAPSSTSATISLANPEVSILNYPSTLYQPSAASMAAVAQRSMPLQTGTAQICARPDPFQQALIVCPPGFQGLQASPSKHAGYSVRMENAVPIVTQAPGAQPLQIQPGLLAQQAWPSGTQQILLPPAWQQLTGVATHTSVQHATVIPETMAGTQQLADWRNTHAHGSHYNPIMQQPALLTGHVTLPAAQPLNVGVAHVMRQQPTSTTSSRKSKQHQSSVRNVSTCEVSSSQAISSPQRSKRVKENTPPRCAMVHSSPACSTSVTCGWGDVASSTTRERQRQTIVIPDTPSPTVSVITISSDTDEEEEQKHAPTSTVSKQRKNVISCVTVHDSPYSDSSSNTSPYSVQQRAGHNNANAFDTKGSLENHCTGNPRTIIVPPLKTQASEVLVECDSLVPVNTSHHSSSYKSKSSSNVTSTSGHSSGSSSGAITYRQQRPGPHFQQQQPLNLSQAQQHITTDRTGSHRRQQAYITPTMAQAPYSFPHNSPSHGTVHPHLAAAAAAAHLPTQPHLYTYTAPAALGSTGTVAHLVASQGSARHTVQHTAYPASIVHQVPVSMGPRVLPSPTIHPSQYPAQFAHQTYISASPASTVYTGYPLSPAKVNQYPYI
Experimental Readout: residual activity (%)
Write the answer as a number in %, unit excluded.

*Q* // Input: `NS(=O)(=O)OC[C@@H]1C[C@@H](n2ccc3c(N[C@H]4CCc5ccccc54)ncnc32)C[C@@H]1O` . Output its residual activity only.
*A* 88

*Q* Identify measured residual activity associated with `NCC(=O)Nc1ccc(-n2nc(C(F)(F)F)cc2-c2ccc3c(ccc4ccccc43)c2)cc1`
*A* 88

*Q* Quick one: give measured residual activity for `c1ccc2c(-c3cnn4cc(-c5ccc(N6CCNCC6)cc5)cnc34)ccnc2c1`
*A* 91

----------
molecular target: SRPK1 (human); assay: radiometric filter-binding kinase assay; conditions: compound 1.0 µM
Experimental Readout: residual activity (%)
Reply with just the number (in %).

*Q* Please give the documented residual activity of `O=C(Nc1nc2cc(C(F)(F)F)cc(NC3CC3)n2n1)c1cccnc1`
*A* 102

*Q* Using known records, supply residual activity for `CCc1cncnc1N1CCN(Cc2nc3cc(C(F)(F)F)ccc3[nH]2)CC1`
*A* 106

*Q* // Input: CC1=C(CO)C(=O)O[C@@H]([C@@H](C)[C@H]2CC[C@H]3[C@@H]4C[C@H]5O[C@]56[C@@H](O)C=CC(=O)[C@]6(C)C4CC[C@]23C)C1 (stereo partly specified) . Output its residual activity only.
*A* 86

*Q* Output measured residual activity for this item: COc1cc(O)c2c(c1)[C@H]1OC1C[C@H](O)[C@H](O)C(=O)/C=C\C[C@H](C)OC2=O (stereo partly specified)
*A* 100

*Q* In one line, give reported residual activity of the entry `CCNc1nc(Nc2cc(F)c(C(=O)N3CCOCC3)cc2OC)ncc1C(F)(F)F` .
*A* 79

*Q* Complete the entry with residual activity for `Oc1ccc(/C=C/c2cc(O)cc(O)c2)cc1`
*A* 111

*Q* Give reported residual activity value for `CC(C)(C#N)c1ccc(N2C(=O)OCc3cnc4ccc(-c5cnc6ccccc6c5)cc4c32)cc1`
*A* 90

*Q* Write down residual activity measured for item `O=C1NC(=S)N[C@@H]1Cc1c[nH]c2ccccc12`
*A* 100

*Q* Quickly give me recorded residual activity for `Cc1cc(NC(=O)c2cccc(NC(=O)/C=C/CN(C)C)c2)ccc1Nc1nccc(-c2cccnc2)n1`
*A* 84

*Q* Specify measured residual activity for `O=C(NCCCNc1nc(Nc2cccc(CN3CCOCC3)c2)ncc1C1CC1)C1CCC1` .
*A* 101

*Q* Identify the reported residual activity for the following entry. `Cc1ccc(=O)n(-c2ccccc2)c1`
*A* 95

*Q* Give residual activity for the following compound: `NC(=O)c1cc(-c2ccnc(NC3CCCCC3)c2)nc(N2CCNCC2)c1`
*A* 86

*Q* State, in one line, measured residual activity of `O=C(O)c1cc(N=Nc2ccc(S(=O)(=O)Nc3ccccn3)cc2)ccc1O`
*A* 106

*Q* Identify measured residual activity associated with `C[C@H]1CCCC(=O)CCC/C=C/c2cc(O)cc(O)c2C(=O)O1`
*A* 95

*Q* Recall and state the measured residual activity for `FC(F)(F)c1ccc(-c2ccc(Oc3cncc4sc(-c5nn[nH]n5)cc34)cc2)cc1` .
*A* 112

*Q* Provide residual activity value for the following compound: `CN(C)C/C=C/C(=O)Nc1cccc(C(=O)Nc2ccc(Nc3nccc(-c4cccnc4)n3)cc2)c1`
*A* 104

*Q* Find the measured residual activity of `CCCCCc1ccc(/C=C/[C@H](O)[C@@H](CO)NC)cc1` and report it.
*A* 89

*Q* Please indicate residual activity recorded for `N#Cc1c(C2CCNCC2)cc(-c2c(O)cccc2OCC2CC2)nc1N`
*A* 92

*Q* Determine from records and report residual activity for `NC1(c2ccc(-c3nc4ccn5c(=O)[nH]nc5c4cc3-c3ccccc3)cc2)CCC1`
*A* 106

*Q* Indicate the recorded residual activity value for this compound: `C=CC(=O)N1CCC[C@@H](n2nc(-c3ccc(Oc4ccccc4)cc3)c3c(N)ncnc32)C1`
*A* 115

*Q* Name the recorded residual activity of the compound listed here: `COc1cc(O)c2c(c1)/C=C/C[C@H](O)[C@H](O)C(=O)/C=C\C[C@H](C)OC2=O`
*A* 88

*Q* # return recorded residual activity for entry `COc1cc2ncn(-c3cc(OCc4ccccc4S(C)(=O)=O)c(C#N)s3)c2cc1OC`
*A* 93

*Q* Identify the reported residual activity for the following entry. `CNc1nc(-c2ccc3c(N)n[nH]c3c2)cc(N2C[C@@H](C(=O)NC3CCCCC3)CC[C@H]2C)n1`
*A* 104

*Q* Entry `NC(=O)Nc1ccc2c(c1)/C(=C/c1cc(-c3cccnc3)c[nH]1)C(=O)N2` needs its residual activity filled in; supply it.
*A* 75

*Q* Please indicate residual activity recorded for `Cc1cc(SCc2sc(-c3ccc(C(F)(F)F)cc3)nc2C)ccc1OCC(=O)O`
*A* 96

*Q* Please report residual activity for the following compound: `O=C(N[C@@H](COc1ccc2[nH]c(=O)[nH]c2c1)c1ccccc1)c1cccn(Cc2ccc(F)c(F)c2)c1=O`
*A* 114

*Q* Return residual activity (reported value) for this compound: `Cc1nc(-c2ccc(OCC(C)C)c(C#N)c2)sc1C(=O)O`
*A* 99

*Q* # return recorded residual activity for input O=C(NOCC(O)CO)c1ccc(F)c(F)c1Nc1ccc(I)cc1Cl (stereo unspecified)
*A* 95

*Q* Please report residual activity for the following compound: `Cc1cccc(Nc2nn(C)c3ncnc(N)c23)c1`
*A* 107

*Q* Note residual activity for the compound shown: `COc1ccc(-n2ncc3cnc(Nc4cc(OC)c(OC)c(OCCCN5CCN(C)CC5)c4)nc32)cc1`
*A* 87

*Q* Please give the documented residual activity of `NC(=O)c1ccc(-c2ccc(Oc3cncc4sc(-c5nn[nH]n5)cc34)cc2)cc1`
*A* 99

*Q* Please look at this compound and report its residual activity: `Oc1ccc2ccccc2c1SSc1c(O)ccc2ccccc12`
*A* 62

*Q* Answer with reported residual activity of `O=C(O)c1ccc(-c2c[nH]c3ncc(-c4ccccc4)cc23)cc1C1CCCC1`
*A* 104

*Q* Quote residual activity reported for `NCC(=O)Nc1ccc(-n2nc(C(F)(F)F)cc2-c2ccc3c(ccc4ccccc43)c2)cc1` please.
*A* 94

*Q* In one line, give reported residual activity of the entry O=C1Nc2nc(-c3c(O)cccc3OCC3CC3)cc(C3CCCNC3)c2CO1 (stereo unspecified) .
*A* 98

*Q* Specify residual activity for `O=C(Nc1ccccc1-c1cn2c(CN3CCNCC3)csc2n1)c1cnc2ccccc2n1` and stop.
*A* 92
